Where do these numbers come from? They come from ChEMBL document CHEMBL6083249.

Experiment: Plasma protein binding in Sprague-Dawley rat assessed as unbound fraction at 1 uM incubated for 6 hrs by LC-MS/MS analysis
Type: ADME, cell-free
REPORTED PROPERTY: fraction unbound at 6 h, 1 µM
Just the number.

What value of fraction unbound at 6 h, 1 µM has been recorded for this entry: CC(=O)Nc1cc(-c2c(-c3ccc(F)cc3)nc([S+](C)[O-])n2C)ccn1 (stereo unspecified)
0.863

* * *

Experiment: Tmax in Sprague-Dawley rat at 20 mg/kg, po by LC-MS analysis
Type: ADME, organism-based
Details: in vivo
REPORTED PROPERTY: Tmax
Dear colleague, please send the value followed by its unit.

Give its Tmax value. Item: CC(=O)Nc1cc(-c2c(-c3ccc(F)cc3)nc([S+](C)[O-])n2C)ccn1 (stereo unspecified)
2.9 h

* * *

Experiment: MRT in ICR mouse at 5 mg/kg, iv by LC-MS/MS analysis
Assay type: ADME, organism-based
Conditions: in vivo
REPORTED PROPERTY: MRT
Don't forget the unit after the number, please.

Recorded MRT for CCCNC(=O)c1cn2ncnc(Nc3cc(C(=O)NC4CC4)ccc3C)c2c1C , please?
3.3 h

* * *

Assay: Volume of distribution at steady state in ICR mouse at 2 mg/kg, iv
Assay type: ADME, organism-based
Settings: in vivo, read-out: Vdss
REPORTED PROPERTY: Vd (L/kg)
Form entry: value (L/kg) — number only.

Need Vd, item CCCNC(=O)c1cn2ncnc(Nc3cc(C(=O)NC4CC4)ccc3C)c2c1C
0.9

* * *

Experiment: Plasma protein binding in human assessed as unbound fraction at 10 uM incubated for 6 hrs by LC-MS/MS analysis
Assay type: ADME, cell-free
REPORTED PROPERTY: fraction unbound at 6 h, 10 µM
Please give only the number in your answer, with no unit.

If you can, please state the reported fraction unbound at 6 h, 10 µM value of CC(=O)Nc1cc(-c2c(-c3ccc(F)cc3)nc([S+](C)[O-])n2C)ccn1 (stereo unspecified) .
0.806

* * *

Below, each entry is listed with its recorded clearance.
Test: Clearance in Sprague-Dawley rat at 10 mg/kg, iv by HPLC-MS analysis
Format: ADME, organism-based
Settings: in vivo
Numeric only. Scale: mL/min/kg

Cn1c(=O)c(Oc2ccc(F)cc2F)cc2cnc(NC3CCOCC3)nc21 :: 20.7

Look up clearance for this molecule: Cn1c(=O)c(Oc2ccc(F)cc2F)cc2cnc(NC(CCO)CCO)nc21
21

* * *

Assay: Tmax in Sprague-Dawley rat at 50 mg/kg, po by LC-MS analysis
Type: ADME, organism-based
Settings: in vivo
REPORTED PROPERTY: Tmax (h)
Numbers only here, please. The scale is h.

What value of Tmax has been recorded for this entry: CC(=O)Nc1cc(-c2c(-c3ccc(F)cc3)nc([S+](C)[O-])n2C)ccn1 (stereo unspecified)
1.5

* * *

Test: AUC (0 to t) in Sprague-Dawley rat at 20 mg/kg, po by LC-MS analysis
Type: ADME, organism-based
Settings: in vivo
REPORTED PROPERTY: AUCt
Note to self: number, then unit, no commentary.

I have this compound here, CC(=O)Nc1cc(-c2c(-c3ccc(F)cc3)nc([S+](C)[O-])n2C)ccn1 (stereo unspecified) , and I need its recorded AUCt.
0.31 µM·h

* * *

Experiment: Plasma protein binding in cynomolgus monkey assessed as unbound fraction at 1 uM incubated for 6 hrs by LC-MS/MS analysis
Format: ADME, cell-free, Macaca fascicularis
REPORTED PROPERTY: fraction unbound at 6 h, 1 µM

Fill in: fraction unbound at 6 h, 1 µM of CC(=O)Nc1cc(-c2c(-c3ccc(F)cc3)nc([S+](C)[O-])n2C)ccn1 (stereo unspecified) is ___
0.667

* * *

Assay: Clearance in rat
Assay type: ADME
Details: in vivo
REPORTED PROPERTY: clearance

# input molecule: O=C(CO)N1CCC(c2[nH]nc(-c3ccc(Cl)cc3)c2-c2ccncn2)CC1 ; wanted: its clearance
4.86 mL/min/kg

* * *

Assay: AUC (0 to infinity) in Sprague-Dawley rat at 50 mg/kg, po by LC-MS/MS analysis
Assay type: ADME, organism-based
Details: in vivo
REPORTED PROPERTY: AUC (µM·h)
Write the value in µM·h as a bare number.

If you can, please state the reported AUC value of CC(=O)Nc1cc(-c2c(-c3ccc(F)cc3)nc([S+](C)[O-])n2C)ccn1 (stereo unspecified) .
3.58

* * *

Test: AUC (0 to t) in Sprague-Dawley rat at 10 mg/kg, po by LC-MS analysis
Assay type: ADME, organism-based
Details: in vivo
REPORTED PROPERTY: AUCt (µM·h)
Give your result in µM·h as a bare value.

// AUCt lookup, key: CC(=O)Nc1cc(-c2c(-c3ccc(F)cc3)nc([S+](C)[O-])n2C)ccn1 (stereo unspecified)
0.95

* * *

Assay: Plasma protein binding in human assessed as unbound fraction at 1 uM incubated for 6 hrs by LC-MS/MS analysis
Assay type: ADME, cell-free
REPORTED PROPERTY: fraction unbound at 6 h, 1 µM
I only need the number, thanks.

State the recorded fraction unbound at 6 h, 1 µM for this entry: CC(=O)Nc1cc(-c2c(-c3ccc(F)cc3)nc([S+](C)[O-])n2C)ccn1 (stereo unspecified)
0.9

* * *

Experiment: Cmax in ICR mouse at 5 mg/kg, iv by LC-MS/MS analysis
Assay type: ADME, organism-based
Conditions: in vivo
REPORTED PROPERTY: Cmax (µM)
Answer with a number only, understood to be in µM.

Consider the molecule CCCNC(=O)c1cn2ncnc(Nc3cc(C(=O)NC4CC4)ccc3C)c2c1C and give its measured Cmax.
15.3

* * *

Assay: Half life in Sprague-Dawley rat at 10 mg/kg, po by LC-MS/MS analysis
Assay type: ADME, organism-based
Conditions: in vivo
REPORTED PROPERTY: half-life (h)
State just the number; it will be interpreted in h.

Need half-life of CC(=O)Nc1cc(-c2c(-c3ccc(F)cc3)nc([S+](C)[O-])n2C)ccn1 (stereo unspecified) , thanks.
2.7

* * *

Test: Half life in Beagle dog at 5 mg/kg, po by LC-MS/MS analysis
Assay type: ADME, organism-based, Canis lupus familiaris
Settings: in vivo
REPORTED PROPERTY: half-life
Form entry: enter the amount, then its unit.

# get_value(readout='half-life', item= O=C(CO)N1CCC(c2[nH]nc(-c3ccc(Cl)cc3)c2-c2ccncn2)CC1 )
4.48 h

* * *

Assay: Half life in Sprague-Dawley rat at 50 mg/kg, po by LC-MS/MS analysis
Type: ADME, organism-based
Conditions: in vivo
REPORTED PROPERTY: half-life (h)
Quick note: give the figure in h, leave out the unit.

Query: half-life; subject: CC(=O)Nc1cc(-c2c(-c3ccc(F)cc3)nc([S+](C)[O-])n2C)ccn1 (stereo unspecified)
3.2

* * *

Experiment: Half life in Sprague-Dawley rat at 30 mg/kg, po by LC-MS/MS analysis
Type: ADME, organism-based
Conditions: in vivo
REPORTED PROPERTY: half-life (h)
Numeric only. Scale: h

Field request: half-life | item: CC(=O)Nc1cc(-c2c(-c3ccc(F)cc3)nc([S+](C)[O-])n2C)ccn1 (stereo unspecified)
3.4

* * *

Experiment: Clearance in ICR mouse at 2 mg/kg, iv
Assay type: ADME, organism-based
Details: in vivo
REPORTED PROPERTY: clearance (mL/min/kg)
Supply the numeric figure in mL/min/kg, leaving out any unit text.

Report clearance for CCCNC(=O)c1cn2ncnc(Nc3cc(C(=O)NC4CC4)ccc3C)c2c1C please.
4.4

* * *

Test: AUC (0 to infinity) in Sprague-Dawley rat at 20 mg/kg, po by LC-MS/MS analysis
Type: ADME, organism-based
Settings: in vivo
REPORTED PROPERTY: AUC (µM·h)
All answers are understood in µM·h, so give the number only.

For the compound shown here, CC(=O)Nc1cc(-c2c(-c3ccc(F)cc3)nc([S+](C)[O-])n2C)ccn1 (stereo unspecified) , give the reported AUC.
2.24

* * *

Assay: Plasma protein binding in Sprague-Dawley rat assessed as unbound fraction at 30 uM incubated for 6 hrs by LC-MS/MS analysis
Format: ADME, cell-free
REPORTED PROPERTY: fraction unbound at 6 h, 30 µM
Number, no unit, nothing else.

Give the measured fraction unbound at 6 h, 30 µM of CC(=O)Nc1cc(-c2c(-c3ccc(F)cc3)nc([S+](C)[O-])n2C)ccn1 (stereo unspecified) .
0.754

* * *

Assay: Cmax in Sprague-Dawley rat at 10 mg/kg, po by LC-MS analysis
Type: ADME, organism-based
Conditions: in vivo
REPORTED PROPERTY: Cmax (nM)
Report the figure in nM without appending any unit label.

So what does the record say about Cmax for CC(=O)Nc1cc(-c2c(-c3ccc(F)cc3)nc([S+](C)[O-])n2C)ccn1 (stereo unspecified) ?
200
